Exercise: for every item that follows, state its recorded pIC50.
# Tested on: Skin cancer cell line A431 (WT)
# method: MTS cell viability assay, A431
# Format: cell-based
# details: Homo sapiens, A-431, 72 hours
pIC50: −log10 of the molar value.

Illustrative cases are given below, each with its answer.
[2H]c1c(C([2H])([2H])N(C)C)c(-c2ccccc2)nn1-c1ccnc(Nc2cc(NC(=O)C=C)c(N3CCOCC3)cc2OC)n1 ... 6.35 to 6.70
[2H]C([2H])([2H])Oc1cc(N2CCOCC2)c(NC(=O)C=C)cc1Nc1nccc(-n2cc(CN(C)C)c(-c3ccccc3)n2)n1 ... 6.35 to 6.70

# input for lookup
# get_value(readout='pIC50', item= C=CC(=O)Nc1cc(Nc2nccc(-n3cc(CN(C)C)c(-c4ccccc4)n3)n2)c(OC)cc1N1CCOCC1 [Compound T-0, reference compound] )
6.35 to 6.70

---

# method: Pharmacokinetic experiment in rats
# Type: in vivo, Sprague-Dawley rats
# details: male, Sprague-Dawley, plasma; rat, IV 0.5 mg/kg single dose; read-out: MRTINF—pred
property.name: MRT inf (h)
Answers are plain numbers, in h.

C=CC(=O)Nc1cc(Nc2nccc(-n3cc(CN(C)C)c(-c4ccccc4)n3)n2)c(OC)cc1N1CCOCC1 [Compound T-0, reference compound] ... 2.95

# input for lookup
# get_value(readout='MRT inf', item= [2H]C([2H])([2H])Oc1cc(N2CCOCC2)c(NC(=O)C=C)cc1Nc1nccc(-n2cc(CN(C)C)c(-c3ccccc3)n2)n1 )
3.34

---

Exercise: for every item that follows, state its recorded pIC50.
# System: lung cancer cells HCC827 (Del19)
# method: MTS cell viability assay, HCC827
# Assay type: cell-based
# details: Homo sapiens, 72 hours
Numbers only, as −log10 of the molar value.

Report pIC50 for every entry below.
1. [2H]c1c([2H])c([2H])c(-c2nn(-c3ccnc(Nc4cc(NC(=O)C=C)c(N5CCOCC5)cc4OC)n3)cc2CN(C)C)c([2H])c1[2H]
2. [2H]c1c([2H])c([2H])c(-c2nn(-c3ccnc(Nc4cc(NC(=O)C=C)c(N5CCOCC5)cc4OC)n3)cc2CN(C([2H])([2H])[2H])C([2H])([2H])[2H])c([2H])c1[2H]

1: 8.70; 2: 8.70

Report pIC50 for every entry below.
1. [2H]C([2H])([2H])N(Cc1cn(-c2ccnc(Nc3cc(NC(=O)C=C)c(N4CCOCC4)cc3OC)n2)nc1-c1ccccc1)C([2H])([2H])[2H]
2. C=CC(=O)Nc1cc(Nc2nccc(-n3cc(CN(C)C)c(-c4ccccc4)n3)n2)c(OC)cc1N1CCOCC1 [Compound T-0, reference compound]

1: 8.60; 2: 8.38

Report pIC50 for every entry below.
1. [2H]C([2H])([2H])Oc1cc(N2CCOCC2)c(NC(=O)C=C)cc1Nc1nccc(-n2cc(CN(C)C)c(-c3ccccc3)n2)n1
2. [2H]c1c(C([2H])([2H])N(C)C)c(-c2ccccc2)nn1-c1ccnc(Nc2cc(NC(=O)C=C)c(N3CCOCC3)cc2OC)n1

1: 8.64; 2: 8.81

---

# method: Pharmacokinetic experiment in rats
# Format: in vivo, Sprague-Dawley rats
# details: male, Sprague-Dawley, plasma; rat, PO 10 mg/kg single dose
property.name: AUC(0-t) (ng·h/mL)
Answers are plain numbers, in ng·h/mL.

Report AUC(0-t) for every entry below.
1. C=CC(=O)Nc1cc(Nc2nccc(-n3cc(CN(C)C)c(-c4ccccc4)n3)n2)c(OC)cc1N1CCOCC1 [Compound T-0, reference compound]
2. [2H]C([2H])([2H])Oc1cc(N2CCOCC2)c(NC(=O)C=C)cc1Nc1nccc(-n2cc(CN(C)C)c(-c3ccccc3)n2)n1

1: 1600; 2: 1650

The measured values listed here are drawn from patent US11267810B2.
